# subject of test: T1, 14-3-3 epsilon (Homo sapiens)
# T1 chain: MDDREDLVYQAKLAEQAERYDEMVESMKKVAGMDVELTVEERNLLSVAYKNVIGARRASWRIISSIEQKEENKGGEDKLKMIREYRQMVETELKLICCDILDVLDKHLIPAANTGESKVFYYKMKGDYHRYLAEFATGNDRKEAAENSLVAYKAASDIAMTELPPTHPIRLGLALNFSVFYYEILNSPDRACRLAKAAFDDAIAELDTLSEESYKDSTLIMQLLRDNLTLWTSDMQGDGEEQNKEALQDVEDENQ
# assay explanation: MST
pKd: −log10 of the molar value. Where no end group is shown, it is not given here. [ ]: non-standard residue; d: D form. pT = C[C@@H](OP(=O)(O)O)[C@H](N)C(=O)O; pS = N[C@@H](COP(=O)(O)O)C(=O)O
Known pKd of a selection of binders

Item GRRSI[pS]FSVGA (also: phosphoserine at 103 (place in chain not given here)) [Sirt3^pS103 phospho-endecamer peptide] has what recorded pKd?
< 3.57

More entries:
Value lookup for pKd; key = RSISF[pS]VGASS (also: phosphoserine at 105 (place in chain not given here)) [Sirt3^pS105 phospho-endecamer peptide]
< 3.67

Given the entry KRERP[pT]SPAPH [Sirt6^pT336 phospho-endecamer peptide] , report its measured pKd.
< 3.38

If you can, please state the reported pKd value of RERPT[pS]PAPHR [Sirt6^pS338 phospho-endecamer peptide] .
4.72

Query (binder): VLSSS[pS]CGSNS (also: phosphoserine at 670 (place in chain not given here)) [Sirt1^pS670 phospho-endecamer peptide] ; field requested: pKd
< 3.74
